target: T1, HLA-A*02:01 (human)
T1 construct: Peptide-receptive MHC class I monomer in the UV-ligand exchange assay
test_method_notes: UV peptide exchange, anti-b2m ELISA; exchange yield grade
measurement_label: peptide exchange yield

binder=LLSRGILIL result_value="≥ 75%"
binder=ALIVLHLSL result_value="20 to 50%"
binder=TLNVLITL result_value="20 to 50%"
binder=LVFESVVAA result_value="≥ 75%"
